Just for reference, PubChem BioAssay (NCI) is where these values come from.

# maps each entry to its growth inhibition
Assay: NCI Yeast Anticancer Drug Screen. Data for the bub3 strain (AID 167)
Conditions: S. cerevisiae bub3 mutant strain, at 50.0 µM, hits give high values
Compounds without any hit were thinned out: in the full panel of roughly 79,000, 15% have a hit. Active and inactive are the calls of the source. No stated cut-off is given here; in the data, active means growth inhibition above about 70%; inactive means the rest. Where a SMILES comes first, the peptide text is derived from it. [ ]: non-standard residue; d: D form. ξ: configuration not given here. ξV = CC(C)C(N)C(=O)O
MEASURE: growth inhibition

{"COMPOUND": "CC1(C)OC2C(COCc3ccccc3)=CC(n3ccc(=O)[nH]c3=O)C2O1 (stereo not given)", "RESULT": "10.1% (inactive)"}
{"COMPOUND": "COCc1cc(=O)c(OC)cn1CCO", "RESULT": "0% (inactive)"}
{"COMPOUND": "O=S(=O)(N=S(c1ccccc1)c1ccccc1)c1ccccc1", "RESULT": "-59.6% (inactive)"}
{"COMPOUND": "O=C(O)C1CCCCN1O (stereo not given)", "RESULT": "10.9% (inactive)"}
{"COMPOUND": "CCC1([N+](=O)[O-])CC2C=CC1C2 (stereo not given)", "RESULT": "-21.7% (inactive)"}
{"COMPOUND": "COc1ccccc1N(CN1C(=O)CCC1C(=O)O)C(C)=O (stereo not given)", "RESULT": "-9.1% (inactive)"}
{"COMPOUND": "COC(=O)c1ccc(OCc2ccc3nc(OC)c(OC)nc3c2)cc1", "RESULT": "-28.9% (inactive)"}
{"COMPOUND": "Cc1ccc(/C=C/C(=O)c2sc(-n3nc(-c4ccccc4)cc3-c3ccccc3)nc2C)cc1", "RESULT": "20.1% (inactive)"}
{"COMPOUND": "CCn1c(=O)c2ccccc2c2cc([N+](=O)[O-])ccc21", "RESULT": "12.2% (inactive)"}
{"COMPOUND": "CCN(CC)CCOCC1CCCN2CCCCC12 (stereo not given)", "RESULT": "16.1% (inactive)"}
{"COMPOUND": "C1CSCC2(COC2)CSCCSCC2(COC2)CS1", "RESULT": "-7.35% (inactive)"}
{"COMPOUND": "CC(C)C(N)C(=O)NCC(=O)NCC(=O)O (stereo not drawn) (H-[ξV]-Gly-Gly-OH)", "RESULT": "-28.8% (inactive)"}
{"COMPOUND": "[Fe+2].[NH-]C(Cc1ccc(O)cc1)C(=O)O.[NH-]C(Cc1ccc(O)cc1)C(=O)O (stereo not given)", "RESULT": "-2.4% (inactive)"}
{"COMPOUND": "CCc1cccc(C(C)C)c1NC(=O)C(=O)C(CC(=O)Nc1ccc(Cl)c(Cl)c1)C(=O)OC (stereo not given)", "RESULT": "14.8% (inactive)"}
{"COMPOUND": "CC(=O)Nc1ccc(S(=O)(=O)n2c(=O)oc3cc(Cl)ccc32)cc1", "RESULT": "2.95% (inactive)"}
{"COMPOUND": "NC(Cc1cccnn1)C(=O)O (stereo not given)", "RESULT": "-25.4% (inactive)"}
{"COMPOUND": "CCOC(=O)c1ccc(N(CC(O)CN)S(=O)(=O)c2ccc(C)cc2)cc1 (stereo not given)", "RESULT": "3.5% (inactive)"}
{"COMPOUND": "CC(C)C(Nc1ncnc2nc[nH]c12)C(=O)O (stereo not given)", "RESULT": "-23.2% (inactive)"}
{"COMPOUND": "COc1cc(NC(=O)CC(C)=O)cc(OC)c1", "RESULT": "-18.4% (inactive)"}
{"COMPOUND": "O=C1OC(C2Cc3cc4c(cc3C2=O)CCC4)c2ccccc21 (stereo not given)", "RESULT": "-18.9% (inactive)"}
{"COMPOUND": "Nc1nc(-c2ccccc2)nc2nc3[nH]c(=O)[nH]c(=O)c3nc12", "RESULT": "19.1% (inactive)"}
{"COMPOUND": "Cc1ccc([N+](=O)[O-])cc1S(=O)(=O)O", "RESULT": "20% (inactive)"}
{"COMPOUND": "CC(=O)CCc1ccc2c(c1)OCCO2", "RESULT": "-3.8% (inactive)"}
{"COMPOUND": "COc1ccc2[nH]c3c4c(cc(-c5ccccc5)c3c2c1)C(=O)N(c1ccccc1)C4=O", "RESULT": "-4.3% (inactive)"}
{"COMPOUND": "CC(C)(CCCOc1ccccc1)NC(=O)c1ccccc1", "RESULT": "15.3% (inactive)"}
{"COMPOUND": "COc1cccc2c(SCC(=O)Nc3ccccc3-c3ccccc3NC(=O)CSc3c4ccccc4nc4c(OC)cccc34)c3ccccc3nc12", "RESULT": "-2% (inactive)"}
{"COMPOUND": "NC(N)=N/N=C/c1oc(-c2ccc(S(=O)(=O)O)o2)c(-c2ccc(S(=O)(=O)O)o2)c1[N+](=O)[O-]", "RESULT": "-3.35% (inactive)"}
{"COMPOUND": "Cc1ccc(C)c(NC(=O)CC/C(=N\\NC(=O)c2c(O)ccc3ccccc23)C(C)C(=O)c2ccc(O)cc2)c1 (stereo not given)", "RESULT": "16.1% (inactive)"}
{"COMPOUND": "CS(=O)(=O)N/N=C/C1C=CC=CC1 (stereo not given)", "RESULT": "-12.2% (inactive)"}
{"COMPOUND": "COc1ccc(C(=C(I)c2ccccc2)c2ccc(OC)cc2)cc1", "RESULT": "-25.4% (inactive)"}
{"COMPOUND": "O=C1C(=Cc2cccc(O)c2)N=C(c2ccccc2)N1n1c(-c2ccccc2)nc2ccccc2c1=O", "RESULT": "-1.75% (inactive)"}
{"COMPOUND": "CC(=O)OCC1OC(n2c(O)c(/C=C3\\C=Nc4ccccc43)sc2=S)C(OC(C)=O)C(OC(C)=O)C1OC(C)=O (stereo not given)", "RESULT": "-3.5% (inactive)"}
{"COMPOUND": "Nc1cnc2c(c1)c(=O)nc1n2CCS1", "RESULT": "0.5% (inactive)"}
{"COMPOUND": "C1=C(c2ccccc2)N(c2ccccc2)N=C(c2ccccc2)C1", "RESULT": "-1.65% (inactive)"}
{"COMPOUND": "COC(=O)c1ccc(C(=O)OC)c2nc3ccccc3nc12", "RESULT": "15.1% (inactive)"}
{"COMPOUND": "O=C1Nc2ccccc2N=NN1CCCl", "RESULT": "-7.3% (inactive)"}
{"COMPOUND": "O=C1C2CSCN2C(=O)C2CSCN12 (stereo not given)", "RESULT": "8.8% (inactive)"}
{"COMPOUND": "Nc1ccnc2n[nH]nc12", "RESULT": "5.05% (inactive)"}
{"COMPOUND": "Cc1cc(S(=O)(=O)Nc2n[nH]c(N)n2)c(SCC(=O)O)cc1Cl", "RESULT": "1.85% (inactive)"}
{"COMPOUND": "Cc1ccc(NC(=O)CCc2nnc3s/c(=C\\c4cccc([N+](=O)[O-])c4)c(=O)n23)cc1", "RESULT": "10.7% (inactive)"}
{"COMPOUND": "CCCCCCCCCCCCCCCCCCC1=CC(=O)c2ccccc2C1=O", "RESULT": "8.4% (inactive)"}
{"COMPOUND": "CCOc1ccc(NC(=O)C2=C(C)NC(C)=C(C(=O)Nc3ccc(OCC)cc3)C2c2ccccc2)cc1", "RESULT": "-16.2% (inactive)"}
{"COMPOUND": "CSCC[C@H]1C(=O)N=C(N)N1C(=O)OCc1ccccc1", "RESULT": "-2.75% (inactive)"}
{"COMPOUND": "CC(C)CCCC(C)C1CCC2C3CC=C4CC(OP(=O)(N5CC5)N5CC5)CCC4(C)C3CCC12C (stereo not given)", "RESULT": "-4.1% (inactive)"}
{"COMPOUND": "FC(F)(F)c1cccc(C2SCc3nc4ccccc4n32)c1 (stereo not given)", "RESULT": "23.9% (inactive)"}

----------
Test: NCI Yeast Anticancer Drug Screen. Data for the mec2-1 strain (AID 157)
Settings: S. cerevisiae mec2-1 strain, at 50.0 µM, hits give high values
Compounds without any hit were thinned out: in the full panel of roughly 79,000, 15% have a hit.
MEASURE: growth inhibition (%)

{"COMPOUND": "C=C(CN(C)C)C(=O)c1ccc(C(=O)C(=C)CN(C)C)cc1", "MEASURE": "growth inhibition", "RECORDED_NUMBER": 6.85}
{"COMPOUND": "NS(=O)(=O)c1ccc(NC(=O)Nc2ccc(Cl)cc2[N+](=O)[O-])cc1", "MEASURE": "growth inhibition", "RECORDED_NUMBER": 18.6}
{"COMPOUND": "CC(CC(C(=O)N(C)C)(c1ccccc1)c1ccccc1)[N+](C)(C)[O-] (stereo not given)", "MEASURE": "growth inhibition", "RECORDED_NUMBER": 17.4}
{"COMPOUND": "OC1COCOC1C(O)C1OCOCC1O (stereo not given)", "MEASURE": "growth inhibition", "RECORDED_NUMBER": 9.8}
{"COMPOUND": "CC(=O)Nc1ccc(C2C(C(=O)Nc3ccccc3)=C(C)NC(C)=C2C(=O)Nc2ccccc2)cc1", "MEASURE": "growth inhibition", "RECORDED_NUMBER": -2.6}
{"COMPOUND": "Cc1ccc(-c2c(C#N)c(S)n(NS(=O)(=O)c3ccc(C)cc3)c(=O)c2C#N)cc1", "MEASURE": "growth inhibition", "RECORDED_NUMBER": 57.3}
{"COMPOUND": "COC(=O)c1ccc(C2CCC(OC(c3ccccc3)c3ccccc3)CC2)cc1 (stereo not given)", "MEASURE": "growth inhibition", "RECORDED_NUMBER": -12.7}
{"COMPOUND": "CCCCC1(C(NC(=O)c2ccccc2Cl)c2ccncc2)C(=O)N(c2ccccc2)N(c2ccccc2)C1=O (stereo not given)", "MEASURE": "growth inhibition", "RECORDED_NUMBER": 15.8}
{"COMPOUND": "Nc1c(Cl)cc(Cl)cc1C(=O)O", "MEASURE": "growth inhibition", "RECORDED_NUMBER": -10.5}
{"COMPOUND": "CCCCC(NC(=O)OCc1ccccc1)C(=O)NC(Cc1c[nH]c2ccccc12)C(=O)O (stereo not given)", "MEASURE": "growth inhibition", "RECORDED_NUMBER": 3.9}
